These data points were gathered from patent US20220332795A1.

Tested On: T1, recombinant biotinylated CD71 extracellular domain (Sino Biologics) with an N-terminal 6His tag (human, UniProt P02786 89-760, biotinylated (site not stated))
T1 construct: extracellular domain; also called hCD71; huCD71 ECD
T1 sequence (P02786 other isoform, or with tags, fused parts or gaps): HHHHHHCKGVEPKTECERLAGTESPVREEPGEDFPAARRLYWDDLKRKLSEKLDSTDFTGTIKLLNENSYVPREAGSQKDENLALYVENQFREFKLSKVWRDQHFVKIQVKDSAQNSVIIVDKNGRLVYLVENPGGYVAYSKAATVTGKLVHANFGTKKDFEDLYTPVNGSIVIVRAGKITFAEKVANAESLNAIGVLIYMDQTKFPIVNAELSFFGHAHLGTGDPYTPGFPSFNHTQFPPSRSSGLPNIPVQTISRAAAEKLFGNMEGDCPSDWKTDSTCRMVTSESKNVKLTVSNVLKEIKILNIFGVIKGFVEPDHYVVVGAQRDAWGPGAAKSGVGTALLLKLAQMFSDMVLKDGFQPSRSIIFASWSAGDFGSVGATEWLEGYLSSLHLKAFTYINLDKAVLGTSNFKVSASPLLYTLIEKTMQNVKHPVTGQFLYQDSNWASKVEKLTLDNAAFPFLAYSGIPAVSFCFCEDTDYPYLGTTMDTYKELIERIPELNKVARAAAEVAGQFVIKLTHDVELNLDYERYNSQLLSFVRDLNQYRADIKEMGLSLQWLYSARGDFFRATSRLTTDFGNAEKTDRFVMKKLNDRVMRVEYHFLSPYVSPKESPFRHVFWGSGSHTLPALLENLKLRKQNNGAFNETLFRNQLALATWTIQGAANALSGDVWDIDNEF
Protocol Summary: primary solution ELISA screen
Collected RLU values appear next to each entry.
Kindly answer with a numeric value in RLU, unit omitted.

As a guide, the following entries are already answered.
Binder	RLU (RLU)
SEQ ID NO 65 (designed binder, not shown: small tags and cut ends, FN3 domain, hit of the apical domain panning) MLPAPKNLVVSRVTKDSARLSWTAPDAAFDSFPIAYAEPRPDGEAIVLTVPGSERSYDLTGLKPGTEYSVLIHGVKGGLLSSPLSAIFTT	959000
SEQ ID NO 94 (designed binder, not shown: small tags and cut ends, FN3 domain, hit of the apical domain panning) MLPAPKNLVVSEVTEDSARLSWQGVARAFDSFLITYREQIFAGEVIVLTVPGSERSYDLTGLKPGTEYPVWIQGVKGGSPSAPLSAIFTT	1.02e+06
SEQ ID NO 23 (designed binder, not shown: small tags and cut ends, FN3 domain, hit of the apical domain panning) MLPAPKNLVVSRVTEDSARLSWTAPDAAFDSFAIWYHEWYGDGEAIVLTVPGSERSYDLTGPKPGTEYRVRISGVKGGFESGPLSAIFTT	1.39e+06
SEQ ID NO 78 (designed binder, not shown: small tags and cut ends, FN3 domain, hit of the apical domain panning) MLPAPKNLVVSRVTEDSARLSWTAPDAAFDSFGIGYYEHKRFGEAIQLSVPGSERSYDLTGLKPGTEYEVDIEGVKGGVLSWPLFAEFTT	271000
SEQ ID NO 62 (designed binder, not shown: small tags and cut ends, FN3 domain, hit of the apical domain panning) MLPAPKNLVVSRVTEDSARLSWTAPDAAFDSFKIRYTETRSIGEAIVLTVPGSERSYDLTGLKPGTEYCVPIGGVKGGDSSWPLSAISTT	229000

Now look at this one.
The measured RLU associated with SEQ ID NO 72 (designed binder, not shown: small tags and cut ends, FN3 domain, hit of the apical domain panning) MLPAPKNLVVSRVTEDSARLSWTAPDAAFDSFTIGYREWYWYGEAIVLTVPGSERSYDLTGLKPGTEYNVPISGVKGGLDSFPLSAIFTT reads 338000
